The reported measurements were obtained from the METLIN SMRT retention time set (Domingo-Almenara et al. 2019).

ASSAY_EXPLANATION: gradient 5% acetonitrile 3 min, to 50% in 2 min, to 85% in 15 min, held 3 min, 100 µL/min
MEASUREMENT_CONTEXT: column: Zorbax Extend-C18 2.1 x 50 mm; eluents: water / acetonitrile, 0.1% formic acid
Kindly state RP-LC retention time for each of the entries shown.
Answers are plain numbers, in s.

Sample records with RP-LC retention time:
QUERY: Fill blank: measured RP-LC retention time of the molecule "CCN(CC)C(=O)c1cnc2nc(C)ccc2c1Nc1ccc(CC(=O)O)cc1" is ____.
RESULT: 1020

QUERY: Please look up its RP-LC retention time: CCC(C(=O)NCCc1ccco1)n1c2ccccc2c2cnn(C)c(=O)c21 (stereo not given)
RESULT: 864

QUERY: RP-LC retention time for CC1(C(=O)NCc2ccc(F)c(Cl)c2)Oc2cccnc2NC1=O (stereo not given) ?
RESULT: 730

QUERY: Which RP-LC retention time value belongs to "Cc1nn(C)cc1CN1C[C@@H]2C(=O)N(Cc3ccc4c(c3)OCO4)C(=O)[C@@H]2C1" ?
RESULT: 601

Please state RP-LC retention time for every molecule in the list that follows.
1. c1ccc(-c2nc(C3CC3)no2)c(OC2CN(Cc3ccncc3)C2)c1
2. O=C(Nc1cc(Cl)ccc1F)C1CCCN(c2nnc3ccccn23)C1 (stereo not given)
3. CC(C)c1ccc(CNC(=O)c2cn3c(n2)CCCC3)cc1

RESULT:
1. 611
2. 649
3. 675

====

ASSAY_EXPLANATION: gradient 5% acetonitrile 3 min, to 50% in 2 min, to 85% in 15 min, held 3 min, 100 µL/min
MEASUREMENT_CONTEXT: column: Zorbax Extend-C18 2.1 x 50 mm; eluents: water / acetonitrile, 0.1% formic acid
TEST_READOUT: RP-LC retention time (s)
Give bare numbers, in s.

These recorded examples may help you get a feel for the data.
QUERY: If you can, please state the reported RP-LC retention time value of "Cc1ccc(C)c(NC(=O)c2cnn3c2CCCC3)c1" .
RESULT: 777

QUERY: Returns the measured RP-LC retention time for the input compound. Input: "COCCn1cc(CCNC(=O)Nc2ccc(C)cc2)c2cccnc21"
RESULT: 718

QUERY: Reported RP-LC retention time for Cc1ccc2c(c1)N(S(C)(=O)=O)CCC(C(=O)Nc1cccc(Cl)c1C)O2 (stereo unspecified) : what is it?
RESULT: 1020

QUERY: Query (compound): "Nc1nc(CC(=O)Nc2ccc(CCNC[C@H](O)c3ccccc3)cc2)cs1" ; field requested: RP-LC retention time
RESULT: 591

QUERY: State the recorded RP-LC retention time for this entry: "CCCCOc1ccc2c(=O)c3ccc(O)cc3oc2c1"
RESULT: 928

QUERY: Record request: RP-LC retention time value, item "CCOc1cc(CNc2ccc3[nH]c(=O)[nH]c3c2)cc(Cl)c1OCC"
RESULT: 700

State recorded RP-LC retention time for all listed compounds.
1. Cc1nnc2n1CCC(NC(=O)c1cscn1)CC2 (stereo unspecified)
2. Cc1ccccc1Cn1c(CNC(=O)Cc2ccccc2)nc2ccccc21

RESULT:
1. 542
2. 645

For every record below, what is its RP-LC retention time?
1. COc1cccc(C(=O)N2CCN(c3ccc(=O)n(-c4ccc(Cl)cc4)n3)CC2)c1
2. CCn1cc(C(=O)Nc2ccc(C)cc2Cl)c2cccnc21
3. CCc1ccc(NC(=O)N2CCc3[nH]cnc3C2c2ccncc2)cc1 (stereo unspecified)

RESULT:
1. 853
2. 984
3. 581

Working through the 5 compounds below one at a time, give RP-LC retention time for each.
1. Cc1ccc(F)cc1NS(=O)(=O)c1cc2c(s1)CCN(C(=O)C1CC1)C2
2. COc1cccc(-c2cc(C(=O)N3CCN(c4ccccc4F)CC3)n(C)n2)c1
3. Cc1ccccc1-c1noc(C2CCCN2S(=O)(=O)c2ccc(C(C)C)cc2)n1 (stereo unspecified)
4. CCCS(=O)(=O)N1CCOc2ccc(CN3CCc4ccccc4C3)cc2C1
5. Cc1oc(C2CCN(S(=O)(=O)c3ccc(Cl)cc3)CC2)nc1C(=O)N1CCCC1

RESULT:
[839, 772, 1340, 596, 977]
